The reported measurements were obtained from ChEMBL document CHEMBL4385607.

Experiment: Volume of distribution at steady state in Sprague-Dawley rat at 1 mg/kg, iv measured upto 8 hrs by LC-MS/MS analysis
Assay type: ADME, organism-based
Conditions: in vivo, read-out: Vdss
MEASURED_METRIC: Vd (L/kg)

- SMILES_RECORD: "O=S(=O)(Nc1ccncn1)c1cc2c(cc1F)[C@@H](N1CC[C@H](C(F)(F)F)C[C@@H]1c1ccccn1)CCO2"
  MEAS_VALUE: 1.2

[a] O=S(=O)(Nc1ncns1)c1ccc2c(c1)OCC[C@@H]2N1CC[C@H](C(F)(F)F)C[C@@H]1c1ccc(F)cc1
[b] O=S(=O)(Nc1ccncn1)c1cc2c(cc1F)[C@@H](N1CC[C@H](C(F)(F)F)C[C@@H]1c1ccc(F)cc1)CCO2
INPUT: From the recorded data, which exceeds the other in Vd: a or b ? Lab note: record the label of whichever item you select.
OUTPUT: a

###

Assay: Oral bioavailability in Sprague-Dawley rat at 5 mg/kg measured upto 8 hrs by LC-MS/MS analysis
Format: ADME, organism-based
Conditions: in vivo
MEASURED_METRIC: bioavailability (%)
I only need the number, in %, no unit after it.

INPUT: Hello, please tell me recorded bioavailability for this one: O=S(=O)(Nc1ccncn1)c1cc2c(cc1F)[C@@H](N1CC[C@H](C(F)(F)F)C[C@@H]1c1ccccn1)CCO2
OUTPUT: 73

###

Assay: Dissociation constant, acidic pKa of compound by spectrophotometric method
Type: physicochemical
MEASURED_METRIC: pKa

- SMILES_RECORD: "O=S(=O)(Nc1cccnn1)c1cc2c(cc1F)[C@@H](N1CC[C@H](C(F)(F)F)C[C@@H]1c1ccc(F)cc1)CCO2"
  MEAS_VALUE: 6.59
- SMILES_RECORD: "O=S(=O)(Nc1ccc(F)cn1)c1cc2c(cc1F)[C@@H](N1CC[C@H](C(F)(F)F)C[C@@H]1c1ccc(F)cc1)CCO2"
  MEAS_VALUE: 8.22

[A] O=S(=O)(Nc1ccncn1)c1cc2c(cc1F)[C@@H](N1CC[C@H](C(F)(F)F)C[C@@H]1c1ccc(F)cc1)CCO2
[B] O=S(=O)(Nc1ncns1)c1ccc2c(c1)OCC[C@@H]2N1CC[C@H](C(F)(F)F)C[C@@H]1c1ccc(F)cc1
INPUT: Could you kindly indicate whether A or B has the higher pKa value? Identify your selection by its label.
OUTPUT: A
(A: 5.81, B: 3.26)

###

Test: Lipophilicity, log D of compound at pH 7.4
Assay type: physicochemical
Conditions: buffer
MEASURED_METRIC: logD

[P] O=S(=O)(Nc1ncns1)c1ccc2c(c1)OCC[C@@H]2N1CC[C@H](C(F)(F)F)C[C@@H]1c1ccccc1
[Q] O=S(=O)(Nc1ccncn1)c1cc2c(cc1F)[C@@H](N1CC[C@H](C(F)(F)F)C[C@@H]1c1ccncn1)CCO2
[R] O=S(=O)(Nc1ccncn1)c1cc2c(cc1F)[C@@H](N1CC[C@H](C(F)(F)F)C[C@@H]1c1cnco1)CCO2
INPUT: Using measured logD, arrange the compounds from above in descending sequence. To answer, arrange all of the labels according to the requested order.
OUTPUT: P, R, Q

[A] O=S(=O)(Nc1ncns1)c1cc(F)c(CN2CC[C@H](C(F)(F)F)C[C@@H]2c2ccccc2)cc1F
[B] Cn1nccc1[C@H]1C[C@@H](C(F)(F)F)CCN1[C@H]1CCOc2cc(S(=O)(=O)Nc3ccncn3)c(F)cc21
[C] O=S(=O)(Nc1ccncn1)c1cc2c(cc1F)[C@@H](N1CC[C@H](C(F)(F)F)C[C@@H]1c1cccnc1)CCO2
INPUT: Sequence the entries by logD, beginning with the highest number. Put the labels in the order asked and list them.
OUTPUT: A, C, B

[A] O=S(=O)(Nc1ncns1)c1ccc2c(c1)OCC[C@@H]2N1CC[C@H](C(F)(F)F)C[C@@H]1c1ccc(F)cc1
[B] O=S(=O)(Nc1ccncn1)c1cc2c(cc1F)[C@@H](N1CC[C@H](C(F)(F)F)C[C@@H]1c1cn[nH]c1)CCO2
INPUT: Please indicate which has the smaller reported logD: A , or B . Selection: enter the item's label.
OUTPUT: B

[A] O=S(=O)(Nc1ncns1)c1cc(F)c(CN2CCCC[C@@H]2c2ccccc2)cc1F
[B] O=S(=O)(Nc1ccncn1)c1cc2c(cc1F)[C@@H](N1CC[C@H](C(F)(F)F)C[C@@H]1c1ccnnc1)CCO2
INPUT: A or B : whose logD is greater? # respond with the chosen item's label
OUTPUT: A

###

Assay: Drug level in plasma of FVB transgenic mouse model of inherited erythromelalgia xenografted with human HEK293 cells harboring I848T mutation at 15 mg/kg, po measured after 70 mins by LC-MS/MS analysis
Assay type: ADME, organism-based
MEASURED_METRIC: concentration at 70 min (µM)
State just the number; it will be interpreted in µM.

INPUT: Name the recorded concentration at 70 min of the item O=S(=O)(Nc1ncns1)c1cc(F)c(CN2CC[C@H](C(F)(F)F)C[C@@H]2c2ccccc2)cc1F in your answer.
OUTPUT: 33

###

Assay: Lipophilicity, log D of compound at pH 7.4
Type: physicochemical
Settings: buffer
MEASURED_METRIC: logD

// solved cases for logD follow
- SMILES_RECORD: "O=S(=O)(Nc1cccnn1)c1cc2c(cc1F)[C@@H](N1CC[C@H](C(F)(F)F)C[C@@H]1c1ccc(F)cc1)CCO2"
  MEAS_VALUE: 4.3
- SMILES_RECORD: "O=S(=O)(Nc1ccncn1)c1cc2c(cc1F)[C@@H](N1CC[C@H](C(F)(F)F)C[C@@H]1c1ccncc1)CCO2"
  MEAS_VALUE: 1.2
- SMILES_RECORD: "O=S(=O)(Nc1ncns1)c1cc(F)c(CN2CC[C@@H](C(F)(F)F)C[C@H]2c2ccccc2)cc1F"
  MEAS_VALUE: 2.7
- SMILES_RECORD: "O=S(=O)(Nc1ccncn1)c1cc2c(cc1F)[C@@H](N1CC[C@H](C(F)(F)F)C[C@@H]1c1cnccn1)CCO2"
  MEAS_VALUE: 0.5
- SMILES_RECORD: "O=S(=O)(Nc1ncns1)c1cc(F)c(CN2CCCC[C@H]2c2ccccc2)cc1F"
  MEAS_VALUE: 1.9
- SMILES_RECORD: "O=S(=O)(Nc1ccncn1)c1cc2c(cc1F)[C@@H](N1CC[C@H](C(F)(F)F)C[C@@H]1c1ccc(F)cc1)CCO2"
  MEAS_VALUE: 3.2

[A] O=S(=O)(Nc1ccon1)c1cc2c(cc1F)[C@@H](N1CC[C@H](C(F)(F)F)C[C@@H]1c1ccc(F)cc1)CCO2
[B] O=S(=O)(Nc1ccncn1)c1cc2c(cc1F)[C@@H](N1CC[C@H](C(F)(F)F)C[C@@H]1c1cc[nH]n1)CCO2
INPUT: // task: argmin of logD over [ A , B ] Answer = label.
OUTPUT: B

###

Assay: Plasma clearance in Beagle dog at 0.5 mg/kg, iv administered as single dose measured upto 24 hrs by LC-MS/MS analysis
Type: ADME, organism-based, Canis lupus familiaris
MEASURED_METRIC: clearance (mL/min/kg)
Lab book: enter the figure in mL/min/kg, no units written.

INPUT: Annotate the compound O=S(=O)(Nc1ccncn1)c1cc2c(cc1F)[C@@H](N1CC[C@H](C(F)(F)F)C[C@@H]1c1ccccn1)CCO2 with its measured clearance.
OUTPUT: 2.4

###

Experiment: Clearance in Sprague-Dawley rat hepatocytes at 1 uM measured up to 3 hrs by LC-MS/MS analysis
Format: ADME, cell-based, Hepatocyte
MEASURED_METRIC: CLhep predicted at 1 µM (mL/min/kg)

- SMILES_RECORD: "O=S(=O)(Nc1ccncn1)c1cc2c(cc1F)[C@@H](N1CC[C@H](C(F)(F)F)C[C@@H]1c1ccccn1)CCO2"
  MEAS_VALUE: 17
- SMILES_RECORD: "O=S(=O)(Nc1ccon1)c1cc2c(cc1F)[C@@H](N1CC[C@H](C(F)(F)F)C[C@@H]1c1ccc(F)cc1)CCO2"
  MEAS_VALUE: 13
- SMILES_RECORD: "O=S(=O)(Nc1ccncn1)c1cc2c(cc1F)[C@@H](N1CC[C@H](C(F)(F)F)C[C@@H]1c1cnco1)CCO2"
  MEAS_VALUE: 12
- SMILES_RECORD: "O=S(=O)(Nc1ccncn1)c1cc2c(cc1F)[C@@H](N1CC[C@H](C(F)(F)F)C[C@@H]1c1ccncn1)CCO2"
  MEAS_VALUE: 16
- SMILES_RECORD: "O=S(=O)(Nc1ccncn1)c1cc2c(cc1F)[C@@H](N1CC[C@H](C(F)(F)F)C[C@@H]1c1cc[nH]n1)CCO2"
  MEAS_VALUE: 15
